Test system: KRAS patient-derived spheroids with HUVEC/MSC, viability;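 also: spheroids exposed to agents for 7 days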
assay-explanation: Anticancer human tumor 323965-272-R-J2-PDC patient-derived pancreatic carcinoma cell line growth inhibition [KRAS2]
study-conditions: compound alone; run of 09/02/2021
IC50: recorded values

Take a look at these entries with their results.
| molecule | IC50 |
| --- | --- |
| CNCc1ccccc1-c1csc(C(C)Nc2nc(C)nc3cc(OC)c(OC)cc23)c1 (stereo not given) | 4.96 µM [middle of 6 runs] |
| C=CC(=O)N1CCN(c2nc(=O)n(-c3c(C)ccnc3C(C)C)c3nc(-c4c(O)cccc4F)c(F)cc23)C(C)C1 (stereo not given) | > 10 µM |
| COc1cc2nc(C)nc(NC(C)c3cc(N)cc(C(F)(F)F)c3)c2cc1OC1CCOC1 (stereo not given) | > 10 µM |
| C=CC(=O)N1CCN(c2nc(OCC3CCCN3C)nc3c2CCN(c2cccc4cccc(C)c24)C3)CC1CC#N (stereo not given) | 1.12 µM [middle of 6 runs] |

[ask] Which IC50 value is on record for CC1OCC2(CCN(c3cnc(Sc4ccnc(N)c4Cl)c(N)n3)CC2)C1N (stereo not given) ?
[reply] 535 nM [middle of 6 runs]
